# protocol description: Octanol-water apparent partition coefficient, log D of the compound at pH 7.4
# Assay type: physicochemical
# condition parameters: read-out: LogD7.4
I'd be grateful if you could share measured logD for these entries.
Please give the numeric answer without any surrounding text.

## Input Which value of logD has been reported for "C[C@]1(C(=O)[O-])CSC(c2ncc(O)cc2O)=N1.[Na+]" in the records?
## Output -1.68

## Input Which value of logD has been reported for "COCCOCCOc1cnc(C2=N[C@@](C)(C(=O)[O-])CS2)c(O)c1.[Na+]" in the records?
## Output -1.59

## Input Which value of logD has been reported for "COCCOCCOc1ccnc(C2=N[C@@](C)(C(=O)[O-])CS2)c1O.[Na+]" in the records?
## Output -1.38

## Input Which value of logD has been reported for "COCCOCCOc1cccc(C2=N[C@@](C)(C(=O)[O-])CS2)c1O.[Na+]" in the records?
## Output -0.96
